tested on: MDA-MB-435
# valid calls are Yes for active, No for inactive; nothing else

Exam item: Could you check what this test reported for Cn1c2ccccc2c2c(-c3ccccc3)[n+]3ccncc3nc21 ?
Marked response: No

Exam item: Recorded test call requested for FC(F)(F)c1cccc(Nc2nccc(-c3cnn4nc(-c5ccccc5)ccc34)n2)c1
Marked response: No

Exam item: How did this test come out for O=C1CCCCN1CCCCC#Cc1ccccc1C#Cc1ccc([N+](=O)[O-])cc1 ?
Marked response: No

Exam item: # lookup: test call for C=CC(=O)N1CC2(CCN(c3nc(OC4CCN(CCCOC)CC4)nc4c(OCC(F)(F)F)c(-c5c(C)ccc6[nH]ncc56)c(C5CC5)cc34)CC2)C1
Marked response: No

Exam item: What outcome does the record of this test show for NC(=O)c1ccc(I)c(N)c1 ?
Marked response: No

Exam item: What classification did COc1cc(C2=NOC(c3cc(OC)c(OC)c(OC)c3)C2)ccc1OCCCCOc1cc2c(cc1OC)C(=O)N1CCC[C@H]1C=N2 (some centres not stated) end up with in this test?
Marked response: Yes

Exam item: Hi, sorry to bother you, what did the test record for CC/C(=C(/c1ccc(O)cc1)c1ccc(OCCNC)cc1)c1ccccc1 ?
Marked response: No
